# credit: ChEMBL document CHEMBL3988442

- Test Target: Proteasome subunit beta (Trypanosoma cruzi) (UniProt O96673)
- Sequence (O96673 as listed by the source): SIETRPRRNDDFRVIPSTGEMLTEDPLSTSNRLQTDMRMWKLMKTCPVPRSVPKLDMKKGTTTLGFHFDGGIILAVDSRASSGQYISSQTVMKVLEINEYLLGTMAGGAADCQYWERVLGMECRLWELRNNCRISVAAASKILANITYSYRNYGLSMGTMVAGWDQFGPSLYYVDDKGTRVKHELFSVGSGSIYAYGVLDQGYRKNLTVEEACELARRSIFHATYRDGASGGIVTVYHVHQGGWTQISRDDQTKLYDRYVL
- Method Notes: Trypanosoma cruzi proteasome chymotrypsin-like activity (TcProtChymo) assay.
- Type: functional
- Set-up: scale not given: in the data most compounds retested in dose-response had high values
- Experimental Parameters: 9.37 µM
Kindly supply the reported Percent Effect values for the records listed here.

Incoming: // map CCc1nc(CCNC(=O)NC2CC2)sc1C to recorded Percent Effect (system: Proteasome subunit beta (Trypanosoma cruzi) (UniProt O96673))
Outgoing: 9.89%

Incoming: // map Cc1cc(C)n(-c2cncc(NCCNC(=O)C(C)C)n2)n1 to recorded Percent Effect (system: Proteasome subunit beta (Trypanosoma cruzi) (UniProt O96673))
Outgoing: 10.4%

Incoming: // map O=C(NCc1cc[nH]n1)NCC(O)COc1cccc(F)c1 (centres undefined) to recorded Percent Effect (system: Proteasome subunit beta (Trypanosoma cruzi) (UniProt O96673))
Outgoing: 8.74%

Incoming: // map COCCNC(=O)[C@H]1CN(c2nnc(C)s2)C[C@H]2OCC[C@@H]12 to recorded Percent Effect (system: Proteasome subunit beta (Trypanosoma cruzi) (UniProt O96673))
Outgoing: 3.79%

Incoming: // map O=C(c1ccc(Br)o1)N1CCN(Cc2ccc(OC(F)(F)F)cc2)CC1 to recorded Percent Effect (system: Proteasome subunit beta (Trypanosoma cruzi) (UniProt O96673))
Outgoing: 8.87%

Incoming: // map Cc1ccc(NC(=O)N2CCC(NC(=O)c3ccc(C)o3)CC2)cc1 to recorded Percent Effect (system: Proteasome subunit beta (Trypanosoma cruzi) (UniProt O96673))
Outgoing: 6.39%

Incoming: // map CN(C)C[C@H]1OC[C@@H]2CCN(S(=O)(=O)c3cccs3)C[C@@H]21 to recorded Percent Effect (system: Proteasome subunit beta (Trypanosoma cruzi) (UniProt O96673))
Outgoing: 2.56%

Incoming: // map CC(C)N1CC(C(=O)NCc2ccnc(-n3cccn3)c2)CC1=O (centres undefined) to recorded Percent Effect (system: Proteasome subunit beta (Trypanosoma cruzi) (UniProt O96673))
Outgoing: 3.33%

Incoming: // map CC(NC(=O)N(C)CCCOc1ccc(F)cc1)c1nncn1C (centres undefined) to recorded Percent Effect (system: Proteasome subunit beta (Trypanosoma cruzi) (UniProt O96673))
Outgoing: 17.4%

Incoming: // map COc1c(CNC2CCCOc3ccccc32)c(C)nn1C (centres undefined) to recorded Percent Effect (system: Proteasome subunit beta (Trypanosoma cruzi) (UniProt O96673))
Outgoing: 8.5%

Incoming: // map CC(C)(C)c1cn2nc(N3CCOC(Cn4cncn4)C3)sc2n1 (centres undefined) to recorded Percent Effect (system: Proteasome subunit beta (Trypanosoma cruzi) (UniProt O96673))
Outgoing: 12.4%

Incoming: // map Cc1ccc(C(=O)N2C[C@@H](OCC3CCOCC3)[C@H]3OCCC[C@H]32)o1 to recorded Percent Effect (system: Proteasome subunit beta (Trypanosoma cruzi) (UniProt O96673))
Outgoing: 9.44%

Incoming: // map O=C(C1CC1)N1CCN(Cc2coc(-c3ccc(Cl)cc3)n2)CC1 to recorded Percent Effect (system: Proteasome subunit beta (Trypanosoma cruzi) (UniProt O96673))
Outgoing: -3.38%

Incoming: // map CC(=O)N1CCCN(C(=O)c2oc(Br)cc2C)CC1 to recorded Percent Effect (system: Proteasome subunit beta (Trypanosoma cruzi) (UniProt O96673))
Outgoing: 21.4%

Incoming: // map O=C(NCc1cn2c(n1)CN(CC1CCOCC1)CC2)C1CCC1 to recorded Percent Effect (system: Proteasome subunit beta (Trypanosoma cruzi) (UniProt O96673))
Outgoing: 12.9%

Incoming: // map Cc1cc(C)n(Cc2ccc(C(=O)NCCN3CCOCC3)cc2)n1 to recorded Percent Effect (system: Proteasome subunit beta (Trypanosoma cruzi) (UniProt O96673))
Outgoing: 19.6%

Incoming: // map CCN1CC2(CCN(CCOCCO)CC2)CC(c2ccccc2)C1=O (centres undefined) to recorded Percent Effect (system: Proteasome subunit beta (Trypanosoma cruzi) (UniProt O96673))
Outgoing: 15.2%

Incoming: // map COc1cc(C(=O)N2CCCS2(=O)=O)ccc1C to recorded Percent Effect (system: Proteasome subunit beta (Trypanosoma cruzi) (UniProt O96673))
Outgoing: 14.7%

Incoming: // map CCc1n[nH]c(C2CN(C(=O)c3ncoc3C(C)C)CCO2)n1 (centres undefined) to recorded Percent Effect (system: Proteasome subunit beta (Trypanosoma cruzi) (UniProt O96673))
Outgoing: 2.46%

Incoming: // map Cc1cnn(CC2CN(CC(=O)NCc3ccccn3)CCO2)c1 (centres undefined) to recorded Percent Effect (system: Proteasome subunit beta (Trypanosoma cruzi) (UniProt O96673))
Outgoing: 5.17%

Incoming: // map Cc1nn(-c2ccccc2)cc1C(=O)N1CCCC(n2cccn2)C1 (centres undefined) to recorded Percent Effect (system: Proteasome subunit beta (Trypanosoma cruzi) (UniProt O96673))
Outgoing: 9.07%

Incoming: // map Cc1cnc(CN2CCOC(CNc3cccnn3)C2)cn1 (centres undefined) to recorded Percent Effect (system: Proteasome subunit beta (Trypanosoma cruzi) (UniProt O96673))
Outgoing: 0.676%

Incoming: // map CC(=O)NCc1ccc(C(=O)N2CCCCC2Cn2cccn2)o1 (centres undefined) to recorded Percent Effect (system: Proteasome subunit beta (Trypanosoma cruzi) (UniProt O96673))
Outgoing: 14.4%

Incoming: // map O=C(CN1CCC(c2ccnn2CCO)CC1)NCC1CC1 to recorded Percent Effect (system: Proteasome subunit beta (Trypanosoma cruzi) (UniProt O96673))
Outgoing: 6.96%
